tested_target: human TRPM8 (Homo sapiens, UniProt Q7Z2W7)
Construct: expressed in transfected cells; host or cells: Chinese hamster ovary (CHO) cells, T-REx tetracycline-inducible system, co-transfected with aequorin
Sequence (Q7Z2W7 whole entry): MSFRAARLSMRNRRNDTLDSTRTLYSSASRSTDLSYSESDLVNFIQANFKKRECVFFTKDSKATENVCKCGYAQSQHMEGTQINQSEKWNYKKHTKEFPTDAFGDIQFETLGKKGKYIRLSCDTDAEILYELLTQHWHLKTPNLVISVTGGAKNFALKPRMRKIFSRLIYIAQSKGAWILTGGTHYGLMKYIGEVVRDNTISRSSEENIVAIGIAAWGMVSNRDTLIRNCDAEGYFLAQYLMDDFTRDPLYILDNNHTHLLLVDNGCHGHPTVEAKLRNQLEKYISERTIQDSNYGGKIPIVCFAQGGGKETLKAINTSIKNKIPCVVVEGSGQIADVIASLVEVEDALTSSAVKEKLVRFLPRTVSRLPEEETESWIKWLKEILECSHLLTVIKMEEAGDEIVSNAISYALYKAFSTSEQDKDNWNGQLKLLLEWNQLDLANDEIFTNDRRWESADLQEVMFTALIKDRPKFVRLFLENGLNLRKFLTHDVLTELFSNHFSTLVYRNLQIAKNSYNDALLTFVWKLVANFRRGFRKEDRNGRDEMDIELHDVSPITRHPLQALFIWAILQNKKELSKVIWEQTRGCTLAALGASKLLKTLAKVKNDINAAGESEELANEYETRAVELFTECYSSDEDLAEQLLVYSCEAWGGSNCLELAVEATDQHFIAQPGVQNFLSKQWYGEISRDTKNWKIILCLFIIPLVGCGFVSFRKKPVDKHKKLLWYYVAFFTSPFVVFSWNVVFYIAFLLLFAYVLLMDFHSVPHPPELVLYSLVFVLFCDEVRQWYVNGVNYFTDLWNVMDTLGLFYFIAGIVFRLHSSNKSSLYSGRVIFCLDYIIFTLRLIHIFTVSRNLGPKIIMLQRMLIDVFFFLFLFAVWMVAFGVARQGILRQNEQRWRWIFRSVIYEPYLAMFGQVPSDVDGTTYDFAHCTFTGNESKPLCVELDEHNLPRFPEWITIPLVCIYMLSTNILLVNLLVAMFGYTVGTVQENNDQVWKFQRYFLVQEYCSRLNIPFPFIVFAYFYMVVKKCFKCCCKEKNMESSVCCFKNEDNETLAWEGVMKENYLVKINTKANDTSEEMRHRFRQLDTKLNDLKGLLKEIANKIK
measurement_description: Luminescence readout assay for measuring intracellular calcium, icilin activation
Assay type: cell-based
experimental_context: CHO cells expressing human TRPM8, aequorin luminescence, 1 μM icilin activation; read-out: hTRPM8 IC50
The label Yes is reserved for IC50 strictly under 0.02 µM; No covers values equal to or above it.

Here's what some known entries look like.
In [3]: df
Out[3]:
                                   compound                             tested_target  assigned_class
0  O=C(N[C@@H](c1ccc(C(F)(F)F)cc1)c1ncccc1C(F)(F)F)c1ccc2c(c1)C(=O)N(c1ccccn1)C2=O  human TRPM8 (Homo sapiens, UniProt Q7Z2W7)              No
1  O=C(N[C@@H](c1ccc(OC(F)(F)F)cc1)c1ncccc1F)c1ccc2nnnn2c1  human TRPM8 (Homo sapiens, UniProt Q7Z2W7)              No

Prompt: Determine if CC#Cc1cccnc1[C@@H](NC(=O)c1ccc2cccnc2c1)c1ccc(C(F)(F)F)cc1 [Example 97, 2,2,2-trifluoroacetate] shows IC50 strictly lower than 0.02 µM.
Response: No

Prompt: IC50 strictly < 0.02 µM for this compound? `O=C(N[C@@H](c1cnc2c(Cl)cccc2c1)c1ncccc1C(F)(F)F)c1ccc2cccnc2c1`
Response: No

Prompt: A record lists `O=C(N[C@@H](c1ccc(OC(F)(F)F)cc1)c1ccccn1)c1ccc(=O)[nH]c1` . Is its IC50 below 0.02 µM?
Response: No

Prompt: Given O=C(N[C@@H](c1ccc(C(F)(F)F)cc1)c1ncccc1C(F)(F)F)c1ccc2c(O)ccnc2c1 [Example 106, 2,2,2-trifluoroacetate] , is recorded IC50 strictly lower than 0.02 µM?
Response: Yes

Prompt: Regarding `O=C1Cc2cc(C(=O)N[C@@H](c3ccc(OC(F)(F)F)cc3)c3ncccc3F)ccc2N1` , kindly confirm whether its IC50 is beneath 0.02 µM.
Response: Yes

====

// IC50 lookup, one value per entry
tested_target: human TRPM8 (Homo sapiens, UniProt Q7Z2W7)
Construct: expressed in transfected cells; host or cells: Chinese hamster ovary (CHO) cells, T-REx tetracycline-inducible system, co-transfected with aequorin
measurement_description: Luminescence readout assay for measuring intracellular calcium, icilin activation
Assay type: cell-based
experimental_context: CHO cells expressing human TRPM8, aequorin luminescence, 1 μM icilin activation; read-out: hTRPM8 IC50
Use nM as the unit, but write only the number.

Solved cases below.
>>> df
                                   molecule  endpoint_value
0  O=C(N[C@@H](c1ccc(C(F)(F)F)cc1)c1ccccn1)c1ccc(=O)[nH]c1 [Example 201, 2,2,2-trifluoroacetate]            29.3
1  C=Cc1cccnc1[C@@H](NC(=O)c1ccc(=O)[nH]c1)c1ccc(C(F)(F)F)cc1            29.5
2  CC1(C#Cc2cccnc2[C@@H](NC(=O)c2ccc3ncccc3c2)c2ccc(C(F)(F)F)cc2)COC1 [Example 101, 2,2,2-trifluoroacetate]             395
3  Cc1cc(C)n2nc(C(=O)N[C@@H](c3ccc(C(F)(F)F)cc3)c3ncccc3C(F)(F)F)nc2n1 [Example 151, 2,2,2-trifluoroacetate]             395

Prompt: Assign IC50 to the following record: `O=C(N[C@@H](c1ccc(C(F)(F)F)cc1)c1ncccc1F)c1cnc(Cl)c(Br)c1`
Response: 56

Prompt: Using the record for `O=C(N[C@@H](c1ccc(C(F)(F)F)cc1)c1ncccc1C(F)(F)F)c1cc2ccccc2s1` , state its measured IC50.
Response: 119

Prompt: Fill in IC50 for record COc1cccc(C(NC(=O)c2ccc(=O)[nH]c2)c2ccc(OC(F)(F)F)c(F)c2)n1 (stereo not shown)
Response: 118

Prompt: Consider the molecule `CC#Cc1cccnc1[C@@H](NC(=O)c1ccc(OC)nc1)c1ccc(C(F)(F)F)cc1` . State its measured IC50.
Response: 37.6
